# Measured Target: T1, his-tagged B7-H3 (UniProt Q5ZPR3-2 29-245, limits assumed)
# T1 construct: also called CD276; not shown: His tag
# T1 sequence (looked up): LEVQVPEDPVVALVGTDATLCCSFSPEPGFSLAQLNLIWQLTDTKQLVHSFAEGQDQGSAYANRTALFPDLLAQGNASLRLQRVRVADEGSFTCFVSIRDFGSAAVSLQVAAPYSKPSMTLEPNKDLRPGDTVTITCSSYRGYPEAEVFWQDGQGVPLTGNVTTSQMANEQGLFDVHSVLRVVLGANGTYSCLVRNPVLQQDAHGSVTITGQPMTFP
# Method Notes: SPR, Carterra LSA; binder captured by anti-human Fc, his-tagged B7-H3 injected
Measured Metric: kon (M⁻¹ s⁻¹)
Just the number please, in M⁻¹ s⁻¹, no unit attached.

Prompt: Provide one value: measured kon of 40633p1.1.G11 scFv-Fc (scFv, V domains shown, Tested as scFv-Fc supernatant) VH: EVQLLESGGGLVQPGGSLRLSCAASGFTVSYYGMSWVRQAPGKGLEWVSVIKQDGSEEYYADSVKGRFTISRDNSKNTLYLQMNSPRAEDTAVYYCARHWNDYSNGMNVWGQGTTVTVSS VL: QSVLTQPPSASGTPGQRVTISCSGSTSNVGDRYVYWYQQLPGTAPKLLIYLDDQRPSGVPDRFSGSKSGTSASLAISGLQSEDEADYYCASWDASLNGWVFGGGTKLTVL
Completion: 434000

Prompt: Provide kon value for the following binder: 40511p1.2.G10 scFv-Fc (scFv, V domains shown, Tested as scFv-Fc supernatant) VH: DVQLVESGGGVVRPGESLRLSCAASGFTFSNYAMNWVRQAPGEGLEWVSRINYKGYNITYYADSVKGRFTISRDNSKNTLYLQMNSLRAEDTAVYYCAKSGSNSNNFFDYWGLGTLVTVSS VL: EIVLTQSPGTLSLSPGERATLSCRASQTVGSKLAWYQQKPGQAPRLLIYGASTRATDIPDRFSGSGSGTEFTLTISSLQSEDFAVYYCQQYINWPPLSFGGGTKVEIK
Completion: 645000

Prompt: For 40633p1.2.A8 scFv-Fc (scFv, V domains shown) VH: EVQLLESGGGLLQPGGSLRLSCAASGFSFSSYGMHWVRQAPGKGLEWVAAINSDGSRIYYADSVKGRFTISRDNSKNTLYLQMNSLRAEDTAVYYCTKYYYHYAMDVWGQGTTVTVSS VL: QSVLTQPPSASGTPGQRVTISCSGSRSDIGATTVNWYQQLPGTAPKLLIYQSHLRPSGVPDRFSGSKSGTSASLAISGLQSEDEADYYCASWDASLNTWVFGGGTKLTVL , write its kon.
Completion: 304000

Prompt: Give the value of kon reported for the following: 40633p1.1.F2 scFv-Fc (scFv, V domains shown, Tested as scFv-Fc supernatant) VH: EVQLLESGGGLVQPGGSLRLSCVASGLTFNGFAMTWVRQAPGKGLEWVSGISWNSGSIYYADSVKGRFTISRDNSKNTVYLQMSSLRAEDTAIYYCAKNWNDYYNSMDVWGQGTTVTVSS VL: QSVLTQPPSASGTPGQRVTISCSGSRSNIGTKYVYWYQQFPGTAPKLLIYTTDRRPSGVPDRFSGSKSGTSASLAISGLQSEDEADYYCSAWDDRLNAWVFGGGTKLTVL
Completion: 108000

Prompt: Using the record for 40511p1.2.B5 scFv-Fc (scFv, V domains shown) VH: DVQLVESGGGVVRPGESLRLSCAASGFTFSSYAMSWVRQAPGEGLEWVSSISGSGGSTLYADSVKGRFTISRDSSNNSLYLQMNSLRAEDTAVYYCAKARNNFFDYWGLGTLVTVSS VL: EIVLTQSPGTLTLSPGERATLSCRASRSILTSLAWYQQRPGQTPRLLIYGANSRATGIPDRFSGSGSGTEFTLTISSLQSEDFAVYYCQQYYDWLTITFGGGTKVEIK , state its measured kon.
Completion: 795000
